Hi there, I'd appreciate the recorded MRP for every entry that follows.
Target: Mineralocorticoid receptor (Rattus norvegicus)
Sequence (whole entry): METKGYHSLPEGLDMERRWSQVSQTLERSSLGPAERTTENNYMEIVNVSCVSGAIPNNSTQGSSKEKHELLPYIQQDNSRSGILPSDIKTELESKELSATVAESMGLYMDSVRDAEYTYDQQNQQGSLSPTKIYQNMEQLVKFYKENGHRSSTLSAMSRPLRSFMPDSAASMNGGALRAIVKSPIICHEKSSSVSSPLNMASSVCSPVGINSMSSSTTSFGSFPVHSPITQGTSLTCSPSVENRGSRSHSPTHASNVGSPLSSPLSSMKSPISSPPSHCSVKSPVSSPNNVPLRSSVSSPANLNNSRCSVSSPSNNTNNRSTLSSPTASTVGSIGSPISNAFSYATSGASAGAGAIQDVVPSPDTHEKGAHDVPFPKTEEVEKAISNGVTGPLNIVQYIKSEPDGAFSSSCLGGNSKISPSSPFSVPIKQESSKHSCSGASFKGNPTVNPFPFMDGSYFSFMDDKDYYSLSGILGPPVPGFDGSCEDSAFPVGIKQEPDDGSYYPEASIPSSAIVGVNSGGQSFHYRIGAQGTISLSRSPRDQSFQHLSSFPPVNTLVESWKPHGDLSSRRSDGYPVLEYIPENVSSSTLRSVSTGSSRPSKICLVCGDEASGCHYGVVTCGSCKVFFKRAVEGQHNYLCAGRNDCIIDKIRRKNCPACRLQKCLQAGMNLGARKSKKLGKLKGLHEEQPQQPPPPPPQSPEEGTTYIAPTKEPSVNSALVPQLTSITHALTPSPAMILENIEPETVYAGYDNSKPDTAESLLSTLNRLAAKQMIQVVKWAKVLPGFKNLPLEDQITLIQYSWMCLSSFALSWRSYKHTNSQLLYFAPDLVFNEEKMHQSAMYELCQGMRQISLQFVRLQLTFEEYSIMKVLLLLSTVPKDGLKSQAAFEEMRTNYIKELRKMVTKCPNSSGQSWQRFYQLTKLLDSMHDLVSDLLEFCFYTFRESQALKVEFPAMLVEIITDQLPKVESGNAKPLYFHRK
Assay: Relative potency as antialdosterone activity compared to spironolactone 1 hr after oral administration
Format: functional, organism-based

CC12C(=CC(=O)CC1O)C1CC1C1C2CCC2(C)C1C1CC1[C@@]21CCC(=O)O1 (some centres not stated); 45
C[C@]12CCC(=O)C=C1[C@@H]1C[C@@H]1[C@H]1[C@@H]3[C@@H]4C[C@@H]4[C@@]4(CCC(=O)O4)[C@@]3(C)CC[C@@H]12; 685
CC12C(=CC(=O)[C@@H]3C[C@@H]31)C1CC1C1C2CCC2(C)C1C1CC1[C@@]21CCC(=O)O1 (some centres not stated); 520

Fill in MRP for each of the 4 compounds listed.
1. CS[C@H]1CC(=O)C=C2C3CC3C3C(CCC4(C)C3C3CC3[C@@]43CCC(=O)O3)C21C (some centres not stated)
2. C[C@H]1CC(=O)C=C2C3CC3C3C(CCC4(C)C3C3CC3[C@@]43CCC(=O)O3)C21C (some centres not stated)
3. C[C@H]1CC2(C)C(=CC1=O)C1CC1C1C2CCC2(C)C1C1CC1[C@@]21CCC(=O)O1 (some centres not stated)
4. CC(=O)S[C@H]1CC(=O)C=C2C3CC3C3C(CCC4(C)C3C3CC3[C@@]43CCC(=O)O3)C21C (some centres not stated)

1: 240; 2: 100; 3: 100; 4: 100

---

Hi there, I'd appreciate the recorded MRP for every entry that follows.
Target: Mineralocorticoid receptor (Rattus norvegicus) (UniProt P22199)
Assay: Relative potency as antialdosterone activity compared to spironolactone 1 hr after oral administration
Format: functional, organism-based
Answers are plain numbers.

CC(=O)S[C@@H]1CC2=CC(=O)CC[C@]2(C)[C@H]2CC[C@@]3(C)[C@@H](CC[C@@]34CCC(=O)O4)[C@H]12; 100

Let us move to another entry and its MRP.
Output measured MRP for this item: CC12C=CC(=O)C=C1C1CC1C1C2CCC2(C)C1C1CC1[C@@]21CCC(=O)O1 (some centres undefined)
745

---

Target: Progesterone receptor (Oryctolagus cuniculus) (UniProt P06186)
Sequence (whole entry): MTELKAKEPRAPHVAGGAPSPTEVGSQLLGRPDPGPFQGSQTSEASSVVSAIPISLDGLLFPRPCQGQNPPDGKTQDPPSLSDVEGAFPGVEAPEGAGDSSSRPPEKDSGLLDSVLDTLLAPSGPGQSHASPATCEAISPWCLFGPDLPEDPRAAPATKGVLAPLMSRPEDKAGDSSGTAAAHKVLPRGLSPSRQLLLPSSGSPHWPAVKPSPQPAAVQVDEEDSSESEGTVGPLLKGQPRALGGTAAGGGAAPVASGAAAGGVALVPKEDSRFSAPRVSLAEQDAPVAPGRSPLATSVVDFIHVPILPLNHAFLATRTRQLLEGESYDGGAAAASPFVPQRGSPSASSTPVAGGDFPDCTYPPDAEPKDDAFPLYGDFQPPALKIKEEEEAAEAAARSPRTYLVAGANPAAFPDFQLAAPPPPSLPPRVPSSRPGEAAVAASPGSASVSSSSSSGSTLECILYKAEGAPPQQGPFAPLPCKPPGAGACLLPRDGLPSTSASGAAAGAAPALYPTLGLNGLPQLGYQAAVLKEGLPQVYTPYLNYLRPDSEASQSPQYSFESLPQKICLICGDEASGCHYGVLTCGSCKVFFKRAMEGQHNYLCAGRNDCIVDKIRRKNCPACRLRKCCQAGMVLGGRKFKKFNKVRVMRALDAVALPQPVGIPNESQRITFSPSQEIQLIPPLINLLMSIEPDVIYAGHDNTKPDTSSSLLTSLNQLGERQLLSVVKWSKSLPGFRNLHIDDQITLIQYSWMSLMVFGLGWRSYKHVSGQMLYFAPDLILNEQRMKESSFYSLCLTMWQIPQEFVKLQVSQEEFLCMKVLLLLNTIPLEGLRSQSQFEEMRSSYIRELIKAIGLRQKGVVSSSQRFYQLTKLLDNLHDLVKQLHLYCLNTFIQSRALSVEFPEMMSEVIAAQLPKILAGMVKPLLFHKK
Experiment: Binding affinity for rat progesterone receptor compared to progesterone
Think of 20 as a floor: if Competition factor stands on it or above, it is T; beneath it, F.

Some solved entries appear below for comparison.
CC12C=C(Cl)C(=O)C=C1C1CC1C1C2CCC2(C)C1C1CC1[C@@]21CCC(=O)O1 (stereo not given in full); T
CC1=CC2(C)C(=CC1=O)C1CC1C1C2CCC2(C)C1C1CC1[C@@]21CCC(=O)O1 (stereo not given in full); T
CC12C(=CC(=O)CC1O)C1CC1C1C2CCC2(C)C1C1CC1[C@@]21CCC(=O)O1 (stereo not given in full); F
CC12C(=CC(=O)[C@@H]3C[C@@H]31)C1CC1C1C2CCC2(C)C1C1CC1[C@@]21CCC(=O)O1 (stereo not given in full); F

Shift focus to the following entry.
Quick check: does CC12C(=CC(=O)C[C@@H]1S)C1CC1C1C2CCC2(C)C1C1CC1[C@@]21CCC(=O)O1 (stereo not given in full) have Competition factor greater than or equal to 20?
F

Each recorded value in this set is attributed to ChEMBL document CHEMBL1122986.
